target: PPIA (Homo sapiens, UniProt P62937); construct: Full length PPIA (residues 1-165) with an N-terminal 6×his-yBBR-TEV tag; 6×his-yBBR-TEV (N); made in house; host or cells: E. coli BL21 (DE3) CodonPlus RIPL; experiment: Phage Library Screening with NGS, PPIA; format: binding; details: target concentration 1000, second column
Sequence (P62937 whole entry, the tested form may be a part): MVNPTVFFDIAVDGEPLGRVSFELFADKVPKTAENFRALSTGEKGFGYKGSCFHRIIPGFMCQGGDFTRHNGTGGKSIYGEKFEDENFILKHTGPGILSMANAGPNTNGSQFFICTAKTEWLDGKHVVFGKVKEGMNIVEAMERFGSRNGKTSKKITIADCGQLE
Provide the recorded phage screen counts, Target Concentration 1000 for the entries that follow.
Just the number, please, no unit attached.

input: Item PDCHIASWFCS has what recorded phage screen counts, Target Concentration 1000?
output: 5

input: Thanks! And DPARTDCHVAAYWCYHQ ?
output: 25

input: Thanks! And DPARADCHVAAYWCHHQ ?
output: 7

input: Thanks! And DPARADCHVAAYWCYHR ?
output: 6

input: Thanks! And PDCHIYAFYCL ?
output: 18

input: Thanks! And PTCHIHAYHCY ?
output: 8

input: Thanks! And PECHVEAYFCE ?
output: 22

input: Thanks! And PYDCHIAAWMC ?
output: 35

input: Thanks! And PDCHLNAYWCM ?
output: 115

input: Thanks! And PDCHIAAWYCR ?
output: 10

input: Thanks! And DPARADCHVAAYWCYQQ ?
output: 10

input: Thanks! And DPARSDCHVAAYWCYHQ ?
output: 6

====

target: CDK2 (Homo sapiens); test: Phage Library Screening with NGS, CDK2; assay type: binding; design: Full length CDK2 (residues 1-298) with an N-terminal GST-3C-6×his-TEV tag; GST-3C-6×his-TEV (N, cleaved yes); made in house; host or cells: Sf9 (Bac-to-Bac baculovirus); conditions: CDK2, target concentration 1000, first column
Numbered stars: 1 amine (or outer) side, 2 acyl side, 3 side chain; on linkers, the order of the positions; unused ones are H or OH. Bridge positions count the residues as written; N and C are the ends. Ends that are not written are not given here. Phenylene(1,4-NHCOCH2)2 = O=C(C[*:1])Nc1ccc(NC(=O)C[*:2])cc1
Respond with true for phage screen counts, Target Concentration 1000 values of 200 and above, false for values below.

input: Kindly determine if phage screen counts, Target Concentration 1000 recorded for PMACLSAFFTC (linker 4-11 via Phenylene(1,4-NHCOCH2)2 (inferred)) is above or exactly 200.
output: false

input: Thanks! And PSCLSAFFSCY (linker 3-10 via Phenylene(1,4-NHCOCH2)2 (inferred)) ?
output: true

input: Thanks! And CLDAFFACER (linker 1-8 via Phenylene(1,4-NHCOCH2)2 (inferred); not fully specified (C-terminus)) ?
output: false

input: Thanks! And DPAWWRCVVAALDCVDY (linker 7-14 via Phenylene(1,4-NHCOCH2)2 (inferred)) ?
output: false

input: Thanks! And PACVSAFFACL (linker 3-10 via Phenylene(1,4-NHCOCH2)2 (inferred)) ?
output: false

input: Thanks! And YECLEAFFNC (linker 3-10 via Phenylene(1,4-NHCOCH2)2 (inferred)) ?
output: true

input: Thanks! And WSCLSAYFSC (linker 3-10 via Phenylene(1,4-NHCOCH2)2 (inferred)) ?
output: false

input: Thanks! And PCMDAFFSCVW (linker 2-9 via Phenylene(1,4-NHCOCH2)2 (inferred)) ?
output: false

input: Thanks! And DPAWWRCSIAAVDCEMQ (linker 7-14 via Phenylene(1,4-NHCOCH2)2 (inferred)) ?
output: true

input: Thanks! And FECLDAFFSC (linker 3-10 via Phenylene(1,4-NHCOCH2)2 (inferred); not fully specified (N-terminus, C-terminus)) ?
output: true

input: Thanks! And PTCLNAFFACE (linker 3-10 via Phenylene(1,4-NHCOCH2)2 (inferred)) ?
output: false

input: Thanks! And PFECLSAFFSC (linker 4-11 via Phenylene(1,4-NHCOCH2)2 (inferred)) ?
output: true

input: Thanks! And DPAWWVCSIAAIECESS ?
output: false

input: Thanks! And DPAWYECVVAAIECHAY (linker 7-14 via Phenylene(1,4-NHCOCH2)2 (inferred)) ?
output: true

input: Thanks! And DPAWWVCAVAAIECQEY (linker 7-14 via Phenylene(1,4-NHCOCH2)2 (inferred)) ?
output: true

input: Thanks! And PECLVAFFSCV (linker 3-10 via Phenylene(1,4-NHCOCH2)2 (inferred)) ?
output: true

input: Thanks! And DPAWYECIVAAIECVEY (linker 7-14 via Phenylene(1,4-NHCOCH2)2 (inferred)) ?
output: false

input: Thanks! And CLSAFFMCSS (linker 1-8 via Phenylene(1,4-NHCOCH2)2 (inferred); not fully specified (C-terminus)) ?
output: false

input: Thanks! And ECLSAFFTCV (linker 2-9 via Phenylene(1,4-NHCOCH2)2 (inferred)) ?
output: true

input: Thanks! And DPAWWRCSVAAIDCHWN (linker 7-14 via Phenylene(1,4-NHCOCH2)2 (inferred)) ?
output: false

input: Thanks! And DPAWWHCVIAALDCETQ (linker 7-14 via Phenylene(1,4-NHCOCH2)2 (inferred)) ?
output: false

input: Thanks! And DPAWWVCAIAAMDCHEQ (linker 7-14 via Phenylene(1,4-NHCOCH2)2 (inferred)) ?
output: true

input: Thanks! And DPAWWECIVAALECSDR (linker 7-14 via Phenylene(1,4-NHCOCH2)2 (inferred)) ?
output: false

input: Thanks! And DPAWWMCTIAAIECETT (linker 7-14 via Phenylene(1,4-NHCOCH2)2 (inferred)) ?
output: true

input: Thanks! And PCLDAFFYCVT (linker 2-9 via Phenylene(1,4-NHCOCH2)2 (inferred)) ?
output: false

input: Thanks! And PECLEAFFDCR (linker 3-10 via Phenylene(1,4-NHCOCH2)2 (inferred)) ?
output: true

input: Thanks! And DPAWWVCAIAAIECSDV (linker 7-14 via Phenylene(1,4-NHCOCH2)2 (inferred); not fully specified (N-terminus, C-terminus)) ?
output: true

input: Thanks! And PCLEAFFSCVY (linker 2-9 via Phenylene(1,4-NHCOCH2)2 (inferred)) ?
output: true

input: Thanks! And DPAWWRCSIAAMECHHD (linker 7-14 via Phenylene(1,4-NHCOCH2)2 (inferred)) ?
output: false

input: Thanks! And DPAWWTCSVAAIQCWDS (linker 7-14 via Phenylene(1,4-NHCOCH2)2 (inferred)) ?
output: false

Reference for the values: patent US20240376151A1
